# Read-out: Interleukin-8 (IL8), CXCL8 (gene 3576)
# EXPERIMENTAL_PROTOCOL: BSK_LPS_IL8: BioMAP Diversity Plus: LPS Assay for Interleukin-8 (IL8) Biomarker Activity (AID 2283078)
# CONDITION_NOTES: primary human HUVEC with PBMC; actives raise or lower the signal
Activity calls are given as the source filed them. The calls were made as follows: active = hit-call score of the fitted dose curve at least 0.9, where 1 is the maximum; inactive = score below 0.9.
Form entry, call: pick from T (active), F (inactive)

Previously resolved entries follow.
CCc1cccc(C)c1N(C(=O)CCl)C(C)COC (stereo not drawn) = F
FC(F)C(F)(F)OCC(Cn1cncn1)c1ccc(Cl)cc1Cl (stereo not drawn) = F
CCOP(=O)(NC(C)C)Oc1ccc(SC)c(C)c1 (stereo not drawn) = F
CCCCOC(=O)[C@@H](C)Oc1ccc(Oc2ccc(C#N)cc2F)cc1 = F
CN(C)[C@@H]1C(=O)C(C(N)=O)=C(O)[C@@]2(O)C(=O)C3=C(O)c4c(O)cccc4[C@@](C)(O)[C@H]3[C@H](O)[C@@H]12 = F
CCCSP(=O)(OCC)SCCC = F

Request: What call does the record list for CC(Oc1cccc(Cl)c1)C(=O)O (stereo not drawn) ?
Result: F

Request: How was CCOP(=S)(OCC)Oc1ccc([N+](=O)[O-])cc1 classified in this test?
Result: F

Request: Answer briefly: the call reported for CC1(C(=O)Nc2ccc(O)c(Cl)c2Cl)CCCCC1 in this assay.
Result: F

Request: For this compound, state the assay outcome: CCOP(=O)(OCC)Oc1cc(C)nc(C(C)C)n1
Result: F

Request: Hi, sorry to bother you, what did the test record for CCOP(=S)(Oc1cnc(C(C)(C)C)nc1)OC(C)C (stereo not drawn) ?
Result: T

Request: Status in this test for Nc1c(Cl)cc([N+](=O)[O-])cc1Cl ?
Result: F

Request: State the result this test recorded for N#CSCSC#N .
Result: T

Request: Assay result, entry CCOC(=O)CC(SP(=O)(OC)OC)C(=O)OCC (stereo not drawn) — outcome?
Result: F

Request: Recorded test call requested for CC1=NNC(=O)N(/N=C/c2cccnc2)C1
Result: F

Request: Identify the outcome logged in this assay for the compound shown: CSC1=N[C@@](C)(c2ccccc2)C(=O)N1Nc1ccccc1
Result: T

Request: Any idea what this test logged for CN(C)C(=O)Nc1cccc(C(F)(F)F)c1 ?
Result: F

Request: Recorded test call requested for CNc1cnn(-c2cccc(C(F)(F)F)c2)c(=O)c1Cl
Result: F

====

# EXPERIMENTAL_PROTOCOL: APR_HepG2_P-H2AX_1hr: Apredica 1-hour HepG2 Assay for H2AX Phosphorylation (AID 2282673)
# CONDITION_NOTES: high-content imaging, actives raise or lower the signal
The source made the active and inactive calls. The calls were made as follows: active = hit-call score of the fitted dose curve at least 0.9, where 1 is the maximum; inactive = score below 0.9.
Hi! Could you answer with just one of these? active, inactive

Use the examples below as a reference point.
C[Si](Cn1cncn1)(c1ccc(F)cc1)c1ccc(F)cc1 = inactive
CCNc1nc(Cl)nc(NC(C)(C)C#N)n1 = inactive
CC(COc1ccc(Oc2ccccc2)cc1)Oc1ccccn1 (configuration not stated) = inactive
CCCCSP(=O)(SCCCC)SCCCC = inactive
CC1=NNC(=O)N(/N=C/c2cccnc2)C1 = inactive

Request: Which result was noted for this compound in the test: COP(=O)(OC)C(O)C(Cl)(Cl)Cl (configuration not stated)
Result: inactive

Request: Record lookup: outcome of this test for CCOP(=S)(OCC)Oc1ccc([N+](=O)[O-])cc1 ?
Result: inactive

Request: What outcome does the record of this test show for COP(=O)(OC)OC(Br)C(Cl)(Cl)Br (configuration not stated) ?
Result: inactive

====

# Read-out: sulfotransferase 2A1 (SULT2A1), SULT2A1 (gene 6822)
# EXPERIMENTAL_PROTOCOL: LTEA_HepaRG_SULT2A1: Life Technologies and Expression Analysis (LTEA) Assay for sulfotransferase 2A1 (SULT2A1) using HepaRG (AID 2283531)
# CONDITION_NOTES: mRNA level, 48 h; actives raise or lower the signal
Active and inactive are the calls of the source. How the source made its calls: active means hit-call score of the fitted dose curve at least 0.9, where 1 is the maximum; inactive means score below 0.9.
Your answer must be one of the following: active, inactive

CCC(CC)Nc1c([N+](=O)[O-])cc(C)c(C)c1[N+](=O)[O-] = inactive
CC(C1CC1)C(O)(Cn1cncn1)c1ccc(Cl)cc1 (stereo not drawn) = inactive
CSc1nnc(C(C)(C)C)c(=O)n1N = inactive

Request: What did this assay record as the result for S=C1NCCN1 ?
Result: inactive

Request: Field: outcome | Entry: CCc1cnc(C2=NC(C)(C(C)C)C(=O)N2)c(C(=O)O)c1 (stereo not drawn)
Result: inactive

Request: # outcome recorded in this test, key = C#CC(C)(C)NC(=O)c1cc(Cl)cc(Cl)c1
Result: inactive

Request: What was the test verdict on CNC(=O)Oc1cccc2c1OC(C)(C)O2 ?
Result: inactive

Request: # outcome recorded in this test, key = C=C(C)[C@H]1Cc2c(ccc3c2O[C@@H]2COc4cc(OC)c(OC)cc4[C@@H]2C3=O)O1
Result: active

Request: Dear all, I need the recorded test outcome for CCOP(=S)(OCC)Oc1cc(C)nc(C(C)C)n1 , thank you.
Result: inactive

Request: Hello, I am checking results. What call was entered for CCOC(=O)COc1cc(-c2nn(C)c(OC(F)F)c2Cl)c(F)cc1Cl ?
Result: inactive

Request: What call does the record list for CCC(=NOC/C=C/Cl)C1=C(O)CC(C2CCOCC2)CC1=O (stereo not drawn) ?
Result: inactive

====

# ASSAYED_SYSTEM: Nucleoli Translocation, AR (gene 367) (UniProt P10275)
# Sequence (P10275 whole entry, looked up): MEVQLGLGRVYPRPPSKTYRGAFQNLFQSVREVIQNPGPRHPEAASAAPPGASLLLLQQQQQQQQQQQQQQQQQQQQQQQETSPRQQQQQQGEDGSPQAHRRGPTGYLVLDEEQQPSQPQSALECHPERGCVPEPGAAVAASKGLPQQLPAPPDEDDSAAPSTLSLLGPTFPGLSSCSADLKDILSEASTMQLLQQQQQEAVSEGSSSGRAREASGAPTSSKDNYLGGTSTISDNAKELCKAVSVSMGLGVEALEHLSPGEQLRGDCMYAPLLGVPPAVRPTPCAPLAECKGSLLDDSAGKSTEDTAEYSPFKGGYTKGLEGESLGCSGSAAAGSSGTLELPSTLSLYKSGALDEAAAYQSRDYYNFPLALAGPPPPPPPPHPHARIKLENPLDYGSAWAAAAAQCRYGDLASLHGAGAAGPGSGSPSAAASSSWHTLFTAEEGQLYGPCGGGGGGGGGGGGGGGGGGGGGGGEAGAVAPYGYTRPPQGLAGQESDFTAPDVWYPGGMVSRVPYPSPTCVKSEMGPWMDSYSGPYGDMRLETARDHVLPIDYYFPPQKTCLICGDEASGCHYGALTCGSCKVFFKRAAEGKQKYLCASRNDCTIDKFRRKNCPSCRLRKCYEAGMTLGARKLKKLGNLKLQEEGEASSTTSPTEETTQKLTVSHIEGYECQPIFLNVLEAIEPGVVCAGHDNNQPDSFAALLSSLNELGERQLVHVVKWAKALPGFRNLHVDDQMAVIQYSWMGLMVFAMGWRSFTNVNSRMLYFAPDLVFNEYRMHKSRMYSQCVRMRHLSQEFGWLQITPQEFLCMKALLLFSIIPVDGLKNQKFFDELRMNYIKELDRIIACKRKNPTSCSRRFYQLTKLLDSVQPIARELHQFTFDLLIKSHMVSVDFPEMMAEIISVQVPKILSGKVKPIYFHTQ
# EXPERIMENTAL_PROTOCOL: UPITT_HCI_U2OS_AR_TIF2_Nucleoli_Antagonist: University of Pittsburgh U2OS Androgen Receptor-Transcriptional Intermediary Factor 2 (AR-TIF2) Antagonism High Content Imaging Assay for Nucleoli Translocation (AID 2283997)
Records with an inconclusive call do not appear. Calls of active or inactive are those of the source. Rule for the calls: active = hit-call score of the fitted dose curve at least 0.9, where 1 is the maximum; inconclusive = response in the unintended direction; inactive = score below 0.9.
Choose one outcome from this list and give only that: active, inactive

O=c1ccc(=O)[nH][nH]1 = inactive
CCC(=O)Nc1ccc(Cl)c(Cl)c1 = active
Nc1c(Cl)cc([N+](=O)[O-])cc1Cl = active
COP(=O)(OC)OC(Br)C(Cl)(Cl)Br (stereo not drawn) = active
N#CSCSC#N = active
COP(=O)(OC)SCn1c(=O)oc2cc(Cl)cnc21 = inactive

Request: Hey, what did the test say about CC(COc1ccc(Oc2ccccc2)cc1)Oc1ccccn1 (stereo not drawn) ?
Result: inactive

Request: Test call for this compound, please: CCc1cccc(CC)c1N(COC)C(=O)CCl
Result: active

====

# ASSAYED_SYSTEM: chicken Estrogen Receptor (ESR1), ESR1 (gene 396099)
# EXPERIMENTAL_PROTOCOL: ATG_chERa_XSP1: Attagene TRANS-FACTORIAL Multi-Species (XSP1) HepG2 Assay for chicken Estrogen Receptor (ESR1) (AID 2283779)
# Protocol: ATG_XSP1_multi-species_TRANS is a cell-based, multiplexed assay created by modifying the existing Attagene TRANS-FACTORIAL system to include a panel of nuclear receptors from some or all the following species: human (Homo sapiens), mouse (Mus musculus), frog (Xenopus laevis), zebrafish (Danio rerio), chicken (Gallus gallus), and turtle (Chrysemys picta). The ECOTOX-FACTORIAL format uses HepG2, a human liver cell line, with measurements taken at 24 hours after chemical dosing in a 24-well plate. […]
Inconclusive results are not listed. Calls of active or inactive are those of the source. The calls were made as follows: active = hit-call score of the fitted dose curve at least 0.9, where 1 is the maximum; inconclusive = response in the unintended direction; inactive = score below 0.9.
Outcomes you can answer with include only these: yes = active, no = inactive

Please review the entries below; each comes with its answer.
CCCOCC(=Nc1ccc(Cl)cc1C(F)(F)F)n1ccnc1 = no
C#CC(C)(C)NC(=O)c1cc(Cl)cc(Cl)c1 = yes
CCc1cccc(C)c1N(C(=O)CCl)C(C)COC (centres undefined) = yes

Turning to the following molecule.
Request: Hey, what did the test say about CCOP(=S)(OCC)Oc1ccc2c(C)c(Cl)c(=O)oc2c1 ?
Result: no

====

# Read-out: Vascular cell adhesion molecule 1 (VCAM1), VCAM1 (gene 7412)
# EXPERIMENTAL_PROTOCOL: BSK_LPS_VCAM1: BioMAP Diversity Plus: LPS Assay for Vascular cell adhesion molecule 1 (VCAM1) Biomarker Activity (AID 2283086)
# CONDITION_NOTES: primary human HUVEC with PBMC; actives raise or lower the signal
The source made the active and inactive calls. Rule for the calls: active = hit-call score of the fitted dose curve at least 0.9, where 1 is the maximum; inactive = score below 0.9.
Parameter call: string, one of YES = active, NO = inactive

C[Si](Cn1cncn1)(c1ccc(F)cc1)c1ccc(F)cc1 = NO
COP(=O)(OC)OC(Br)C(Cl)(Cl)Br (stereo unspecified) = YES
CN(C)C(=O)Nc1cccc(C(F)(F)F)c1 = NO
CCC(CC)Nc1c([N+](=O)[O-])cc(C)c(C)c1[N+](=O)[O-] = YES
COc1cccc(C(=O)NN(C(=O)c2cc(C)cc(C)c2)C(C)(C)C)c1C = NO

Now examine the next entry.
Request: Would you mind telling me which call this test gave Cc1nn(-c2cc(NS(C)(=O)=O)c(Cl)cc2Cl)c(=O)n1C(F)F ?
Result: NO
